Target: T1, Human IL2Rγ extracellular domain expressed with a C-terminal myc-myc-hexahistidine tag (human)
T1 construct: also called hIL-2Rg-MMH; hIL-2RG-MMH
T1 chain: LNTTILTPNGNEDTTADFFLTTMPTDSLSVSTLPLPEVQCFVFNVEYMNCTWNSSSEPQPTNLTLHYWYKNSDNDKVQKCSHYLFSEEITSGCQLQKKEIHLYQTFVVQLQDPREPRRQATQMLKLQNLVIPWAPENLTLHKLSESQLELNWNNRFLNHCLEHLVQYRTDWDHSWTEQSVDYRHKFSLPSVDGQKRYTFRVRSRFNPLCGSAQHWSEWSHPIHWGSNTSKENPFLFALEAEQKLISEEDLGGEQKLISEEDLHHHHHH
Experiment: SPR, captured mAb, 37C, dissociation pH 6.0
Mark condition met for reported koff of 0.003 s⁻¹ or greater; mark condition not met for anything smaller.

INSERT INTO measurements (binder, class_label) VALUES
  ('H4H12884P (antibody, human IgG4 S228P, kappa, V domains shown, anti-IL2Rgamma mAb expressed with human IgG4 Fc) VH: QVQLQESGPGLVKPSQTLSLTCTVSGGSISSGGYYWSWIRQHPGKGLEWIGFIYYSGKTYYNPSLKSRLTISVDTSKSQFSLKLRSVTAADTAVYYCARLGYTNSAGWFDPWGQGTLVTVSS VL: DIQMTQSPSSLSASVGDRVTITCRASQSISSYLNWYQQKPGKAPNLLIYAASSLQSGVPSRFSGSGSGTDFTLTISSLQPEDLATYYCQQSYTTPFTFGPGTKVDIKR', 'condition met'),
  ('H4H12890P (antibody, human IgG4 S228P, kappa, V domains shown, anti-IL2Rgamma mAb expressed with human IgG4 Fc) VH: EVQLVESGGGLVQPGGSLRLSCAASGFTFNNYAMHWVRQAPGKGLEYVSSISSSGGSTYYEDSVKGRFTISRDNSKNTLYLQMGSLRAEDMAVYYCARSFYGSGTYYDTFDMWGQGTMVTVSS VL: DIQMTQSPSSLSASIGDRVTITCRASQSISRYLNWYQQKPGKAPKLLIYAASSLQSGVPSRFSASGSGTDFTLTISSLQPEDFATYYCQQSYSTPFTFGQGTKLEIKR', 'condition not met'),
  ('H4H12871P (antibody, human IgG4 S228P, kappa, V domains shown, anti-IL2Rgamma mAb expressed with human IgG4 Fc; also called REGN9434) VH: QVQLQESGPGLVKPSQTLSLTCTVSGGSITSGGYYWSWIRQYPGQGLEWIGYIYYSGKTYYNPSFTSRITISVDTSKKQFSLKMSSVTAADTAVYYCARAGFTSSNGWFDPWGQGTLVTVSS VL: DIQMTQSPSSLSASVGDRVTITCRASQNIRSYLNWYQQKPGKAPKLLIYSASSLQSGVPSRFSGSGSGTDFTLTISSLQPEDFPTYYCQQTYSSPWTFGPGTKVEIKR', 'condition not met'),
  ('H4H12900P (antibody, human IgG4 S228P, kappa, V domains shown, anti-IL2Rgamma mAb expressed with human IgG4 Fc) VH: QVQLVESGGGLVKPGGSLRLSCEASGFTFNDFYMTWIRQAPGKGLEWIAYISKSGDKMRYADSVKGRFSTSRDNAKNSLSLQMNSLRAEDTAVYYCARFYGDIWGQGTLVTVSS VL: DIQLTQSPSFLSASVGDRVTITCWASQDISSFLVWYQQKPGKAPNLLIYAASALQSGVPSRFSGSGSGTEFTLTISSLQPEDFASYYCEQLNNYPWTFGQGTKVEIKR', 'condition not met'),
  ('H4H13541P (antibody, human IgG4 S228P, kappa, V domains shown, anti-IL2Rgamma mAb expressed with human IgG4 Fc) VH: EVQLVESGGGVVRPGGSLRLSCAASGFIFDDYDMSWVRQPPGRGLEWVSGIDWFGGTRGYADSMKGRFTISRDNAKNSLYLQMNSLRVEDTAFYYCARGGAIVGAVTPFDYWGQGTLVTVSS VL: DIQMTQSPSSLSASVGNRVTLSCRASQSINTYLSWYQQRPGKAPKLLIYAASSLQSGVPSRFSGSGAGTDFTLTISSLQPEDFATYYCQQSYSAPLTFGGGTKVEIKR', 'condition not met');
